# test: inhibitors of the yeast RAM network, pilot screen, dse1pr::URA3 reporter, 5-FOA selection (AID 869);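 also: 0% = DMSO wells with no growth and 100% = 10 µM 1-NA-PP1 with full growth; RAM network block rescues cells from 5-FOA so hits raise OD615 growth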
# stated.conditions: S. cerevisiae dse1pr::URA3 5-FOA growth, OD615, 2 d; at 10 µM; stronger effect = higher value; strain carries analog-sensitive mutant Cbk1 kinase
readout.name: inhibition (%)
Give a bare numeral; the unit % is implied.

Field: example entries. Status: answers known.
[
  {
    "compound": "CCOC(=O)c1ccc(NC(=O)N(CC)CC)cc1",
    "inhibition / %": 0.865
  },
  {
    "compound": "CCCCNC(=O)CS(=O)Cc1nc(-c2cccs2)oc1C (configuration not stated)",
    "inhibition / %": 1.57
  },
  {
    "compound": "COc1ccc(N2CC(O)=C(c3nc(C)cs3)C2=N)cc1",
    "inhibition / %": 1.6
  },
  {
    "compound": "Cn1c2ccccc2c2c(C(=O)O)cn(C3CCCC3)c(=O)c21",
    "inhibition / %": 1.46
  },
  {
    "compound": "O=C1CN(C(=O)c2ccc(Br)o2)C(c2ccccc2)c2cc(Br)ccc2N1 (configuration not stated)",
    "inhibition / %": 4.09
  },
  {
    "compound": "CC1=C(C(=O)OCc2ccc3c(c2)OCO3)C(c2ccccc2)NC(=O)N1 (configuration not stated)",
    "inhibition / %": 1.81
  }
]

Supply inhibition value. Item: `COc1ccc(-c2nnc3ccc(SCC(=O)N4CCOCC4)nn23)cc1`
0.96

Supply inhibition value. Item: `Cc1nc(N2CCN(c3ccccc3)CC2)c2c3c(sc2n1)CCC3`
1.38

Supply inhibition value. Item: COc1cc(C2=Nc3c(c(C)nn3-c3ccccc3)P(=O)(N3CCOCC3)O2)cc(OC)c1OC (configuration not stated)
0.485

Supply inhibition value. Item: `Cn1c2c(c3ccccc31)CC/C2=N\O`
1

Supply inhibition value. Item: `CCOC(=O)C1=C(C)S/C(=C\N(C)C)C1=O`
-0.055

---

Consider the following compounds and their measured RAM network inhibition readings.
# test: RAM signaling pathway blockade in yeast – S. cerevisiae, Pdr1DBD-CYC8 efflux-inhibited sensitized strain, primary screen (AID 1298);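 also: 0% = DMSO untreated cells without growth and 100% = 10 µM 1-NA-PP1 full growth; higher means more yeast growth rescued from 5-FOA killing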
# stated.conditions: S. cerevisiae cbk1-as DSE1-URA3 strain, 5-FOA growth OD615, 2 d; at 50 µM; stronger effect = higher value
Give a bare numeral; the unit % is implied.

Field: example entries. Status: answers known.
[
  {
    "compound": "COC(=O)c1cc(=O)n(Cc2ccco2)c(=Nc2ccc(F)c(Cl)c2)s1",
    "RAM network inhibition [%]": 10.1
  },
  {
    "compound": "COc1ccc(CN2CCNC(=O)C2CC(=O)O)cc1OC (stereo not given)",
    "RAM network inhibition [%]": -0.52
  },
  {
    "compound": "COc1cc2[nH]c(=O)n(CCC(=O)N3CCN(c4cccc(C)c4C)CC3)c(=O)c2cc1OC",
    "RAM network inhibition [%]": 5.67
  },
  {
    "compound": "CCOc1ccc(N2CC(=O)SC2=S)cc1",
    "RAM network inhibition [%]": 7.05
  },
  {
    "compound": "O=C(c1cnn2ccccc12)N1CCc2ccccc21",
    "RAM network inhibition [%]": 1.54
  },
  {
    "compound": "CN(C)C(CNC(=O)c1cccs1)c1cccnc1 (stereo not given)",
    "RAM network inhibition [%]": 0.26
  },
  {
    "compound": "O=C(NC1CCS(=O)(=O)C1)c1ccccc1C(=O)c1ccccc1 (stereo not given)",
    "RAM network inhibition [%]": 9.61
  },
  {
    "compound": "O=C1CC(N2CCN(c3nc4ccccc4s3)CC2)C(=O)N1c1ccc(F)cc1 (stereo not given)",
    "RAM network inhibition [%]": 3.67
  }
]

Supply RAM network inhibition value. Item: O=C1c2ccccc2C(Nc2ccc3c(c2)OCO3)N1Cc1ccco1 (stereo not given)
2.26

Supply RAM network inhibition value. Item: `Cc1ccc(C)c(SCC(=O)OCC(=O)c2ccco2)c1`
2.26

---

# test: viability gain of MRP-1-high H69AR cells under doxorubicin, pilot screen, MRP-1 activator project, CellTiter-Glo, duplicate (AID 807);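 also: compound pretreatment 18-22 h then 72 h combined with doxorubicin; 0% = doxorubicin alone and 100% = vehicle without doxorubicin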
# stated.conditions: H69AR viability with doxorubicin, CellTiter-Glo luminescence; at 10 µM; stronger effect = higher value
readout.name: viability increase (%)
Give a bare numeral; the unit % is implied.

[
  {
    "compound": "CC1Cc2ccccc2N1C(=O)CCS(=O)(=O)c1cccc2nonc12 (configuration not stated)",
    "readout.unit": "%",
    "viability increase": -6.45
  },
  {
    "compound": "O=C(Cn1cc2c(n1)CCCCC2)NC1CCN(Cc2ccccc2)CC1",
    "readout.unit": "%",
    "viability increase": -1.57
  },
  {
    "compound": "CCc1ccc(NC(=O)CSc2nc3c(c(=O)n(C)c(=O)n3C)n2C)cc1",
    "readout.unit": "%",
    "viability increase": -1.41
  },
  {
    "compound": "Cc1cccc(N2CCN(c3nc4ccccc4n4cnnc34)CC2)c1C",
    "readout.unit": "%",
    "viability increase": -4.42
  },
  {
    "compound": "Cc1noc(C)c1CSc1nnc(-c2cc(Cl)ccc2Cl)n1N",
    "readout.unit": "%",
    "viability increase": -2.82
  }
]

Supply viability increase value. Item: CCCCCCNC(=O)C(C(=O)OCC)C1CCCCC1 (configuration not stated)
-1.52

Supply viability increase value. Item: `CCCc1cc(C(=O)N2CCN(C(c3ccccc3)c3ccccc3)CC2)no1`
4.46

Supply viability increase value. Item: `CN(C)C(=O)c1nnc(Cc2ccc(Cl)cc2)o1`
2.17

---

Consider the following molecules and their measured viability readings.
# test: reducers of endogenous Her2 protein level, primary screen, SKBR3 breast tumor cells, AlphaScreen, ATP viability (AID 461);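 also: percent of carrier control wells set as 100% viability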
# stated.conditions: 18-24 h, measured here: SKBR3 viability, ATP luminescence, at 10 µM
Give a bare numeral; the unit % is implied.

Field: example entries. Status: answers known.
[
  {
    "molecule": "Cc1cc(C)n(-c2nc(C)nc3sc4c(c23)CCC(C)C4)n1 (stereo not given)",
    "viability [%]": 92.5
  },
  {
    "molecule": "COC(=O)C1=C(C)n2nnnc2NC1c1ccc(Cl)cc1 (stereo not given)",
    "viability [%]": 92
  },
  {
    "molecule": "CCOC(=O)c1[nH]c(C)c(C(=O)NCc2ccccn2)c1C",
    "viability [%]": 134
  }
]

Supply viability value. Item: `O=C(NCCC1=CCCCC1)C1CCN(S(=O)(=O)c2cccc3nsnc23)CC1`
104

---

# test: OD615 S. cerevisiae growth inhibition, permissive medium, pilot counter-assay, permissive growth control for S. cerevisiae lifespan shortening project (AID 705)
# stated.conditions: OD615, 24 h, at 10 µM
The source made the active and inactive calls.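 The calls were made as follows: active = growth inhibition above 25% in both replicates, a cutoff set 3 SD above the mean; inconclusive = above 25% in only one replicate; inactive = the rest.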
Return exactly one item of t for active, f for inactive

[
  {
    "compound": "O=C(NCc1ccco1)C1CCN(c2nnc(-n3cccc3)s2)CC1",
    "assigned.label": "f"
  },
  {
    "compound": "CCOC(=O)N1CCC(NC(=O)C(Cc2ccccc2)NC(=O)C2CCCCC2)CC1 (stereo unspecified)",
    "assigned.label": "f"
  },
  {
    "compound": "CC(C)c1nc2sc3c(SCC(=O)NCc4ccco4)ncnc3c2c2c1CCC2",
    "assigned.label": "f"
  },
  {
    "compound": "CCCc1ccc(Oc2c(-c3ccc(O)c(C)c3O)n[nH]c2C)cc1",
    "assigned.label": "t"
  },
  {
    "compound": "NC(=O)C1CCN(C(=O)C2CCN(S(=O)(=O)c3ccccc3)CC2)CC1",
    "assigned.label": "f"
  },
  {
    "compound": "Cn1c(=O)c2c(nc(NCc3ccccc3)n2C)n(C)c1=O",
    "assigned.label": "f"
  },
  {
    "compound": "O=C(NCc1ccccn1)C1CC(=O)N(C2CCCC2)C1 (stereo unspecified)",
    "assigned.label": "f"
  },
  {
    "compound": "CC(=O)c1sc2ccccc2c1OC(=O)c1ccco1",
    "assigned.label": "f"
  }
]

Lab log entry: COc1ccc(C2C(C(=O)NCc3ccccn3)c3cc(OC)c(OC)cc3C(=O)N2C)cc1 (stereo unspecified) — outcome as called in the assay?
f

Lab log entry: `CCCSc1nc2c(cnn2-c2ccc(F)cc2)c(=O)[nH]1` — outcome as called in the assay?
f

Lab log entry: CC(=O)c1ccc(OCC(O)CN2C(C)CCCC2C)cc1 (stereo unspecified) — outcome as called in the assay?
f

Lab log entry: `O=C(O)c1cccc(CN2C(=O)CSC2=O)c1` — outcome as called in the assay?
f

Lab log entry: `COCc1nc(-c2ccc(-c3ccc(OC)cc3)nc2OC)no1` — outcome as called in the assay?
f

Lab log entry: `COc1ccc(OC)c(S(=O)(=O)Nc2ccc(OCC(=O)O)cc2)c1` — outcome as called in the assay?
f

Lab log entry: `COC(=O)c1coc(-c2ccc(C)cc2)c1C(=O)OC` — outcome as called in the assay?
f

Lab log entry: COC(=O)c1ccccc1NC(=O)Nc1nnc(N2CCCCC2C)s1 (stereo unspecified) — outcome as called in the assay?
f

Lab log entry: `CCOc1ccc2[nH]c(C)c(CN3CCOCC3)c(=O)c2c1` — outcome as called in the assay?
f

Lab log entry: `CCn1c(=NC(=O)CN2C(=O)CCC2=O)sc2c(OC)ccc(OC)c21` — outcome as called in the assay?
f

Lab log entry: CCCCN1C(=O)C2C(c3ccc(OC)cc3O)NC(CC(C)C)(C(=O)O)C2C1=O (stereo unspecified) — outcome as called in the assay?
f

Lab log entry: Cc1ccc(-c2nc(CS(=O)CC(=O)N3CCN(c4ncccn4)CC3)c(C)o2)cc1 (stereo unspecified) — outcome as called in the assay?
f

Lab log entry: `Cc1ccc(-n2nnc3c(=O)n(CC(=O)NCc4ccco4)cnc32)cc1` — outcome as called in the assay?
f

Lab log entry: `COc1cccc(NC(=O)CSc2ncnc3c2oc2ccccc23)c1` — outcome as called in the assay?
f

Lab log entry: CNC(=O)C1C2C=CC3(O2)C1C(=O)N(CCOC)C3C(=O)NCc1ccc(OC)cc1 (stereo unspecified) — outcome as called in the assay?
f

Lab log entry: `Cc1cc(NC(=O)COC(=O)C2CCN(S(=O)(=O)c3ccc(Cl)cc3)CC2)no1` — outcome as called in the assay?
f

Lab log entry: `COc1ccc(-n2c(Cc3cccn3C)nnc2SCC(=O)NC2CCCC2)cc1` — outcome as called in the assay?
f

Reference for the values: PubChem BioAssay
